TARGET SYSTEM: HIV Env of isolate 1006_11_C3_1601 (clade B) (HIV)
TEST METHOD NOTES: cell-based or functional assay
# reported IC50 (µg/ml) with constrains; entries follow
Write the value in µg/mL as a bare number.

Guide cases for IC50 (µg/ml) with constrains, answers given:
# BINDER, ASSAY RESULT
records = [
    ("ePGDM9 (antibody, V domains shown) VH: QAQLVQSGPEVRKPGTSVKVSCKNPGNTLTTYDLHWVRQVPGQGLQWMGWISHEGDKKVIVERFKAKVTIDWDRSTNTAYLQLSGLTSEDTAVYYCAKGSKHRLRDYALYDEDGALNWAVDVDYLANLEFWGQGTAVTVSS VL: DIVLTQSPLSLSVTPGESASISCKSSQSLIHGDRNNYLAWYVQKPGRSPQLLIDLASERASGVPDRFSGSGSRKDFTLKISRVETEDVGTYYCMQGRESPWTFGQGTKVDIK", 0.588),
    ("ePGDM13 (antibody, V domains shown) VH: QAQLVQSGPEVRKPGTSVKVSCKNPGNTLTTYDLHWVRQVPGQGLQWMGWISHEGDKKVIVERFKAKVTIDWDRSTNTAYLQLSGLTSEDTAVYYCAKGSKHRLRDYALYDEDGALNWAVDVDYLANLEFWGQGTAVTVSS VL: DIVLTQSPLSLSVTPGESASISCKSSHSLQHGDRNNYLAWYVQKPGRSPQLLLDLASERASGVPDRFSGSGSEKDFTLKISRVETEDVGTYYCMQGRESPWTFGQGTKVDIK", 0.826),
    ("PGDM1400 (antibody, V domains shown) VH: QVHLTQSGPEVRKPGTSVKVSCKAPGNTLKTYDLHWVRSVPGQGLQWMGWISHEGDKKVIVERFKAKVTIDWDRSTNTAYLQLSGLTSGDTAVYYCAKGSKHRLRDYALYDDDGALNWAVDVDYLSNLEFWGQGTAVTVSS VL: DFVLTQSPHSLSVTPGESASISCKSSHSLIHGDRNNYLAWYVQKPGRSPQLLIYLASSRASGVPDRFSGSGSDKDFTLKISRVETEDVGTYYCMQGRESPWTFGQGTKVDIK", 1.86),
]

Here is the next item to consider.
Value of IC50 (µg/ml) with constrains reported for the binder ePGDM5 (antibody, V domains shown) VH: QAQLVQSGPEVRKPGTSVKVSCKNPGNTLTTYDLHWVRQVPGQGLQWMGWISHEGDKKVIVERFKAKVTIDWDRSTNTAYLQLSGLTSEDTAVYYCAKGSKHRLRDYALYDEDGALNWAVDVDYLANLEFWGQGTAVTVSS VL: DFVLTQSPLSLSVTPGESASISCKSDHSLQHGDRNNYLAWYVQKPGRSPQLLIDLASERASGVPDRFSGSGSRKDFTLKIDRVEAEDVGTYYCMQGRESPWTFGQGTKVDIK is 0.473
